tested on: NCI-H522 lung; assay: NCI-60 one-dose screen, 48 h; conditions: 10 µM unless noted
The panel holds about 83,000 compounds, 20% with a hit somewhere; the sample as a whole holds those more often. Activity calls are given as the source filed them. How the source made its calls: active means growth percent below 10; inactive means the rest.
Outcome codes: True (active), False (inactive)

molecule | assigned label
COc1cc(C)c2c(=O)c3c(oc2c1)C(=O)c1c(O)c(OC)cc(O)c1C3=O | True
CCCCCCCCCC1=NC(C)(C)CN1C(C)(C)CO | False
Cc1nc2c(-c3cnc(N)nc3)nc(N3CCOCC3)nc2n1C(C)C | True
NCCCOc1cc2ccccc2cc1C(=O)NCCCOc1cc2ccccc2cc1C(=O)Nc1ccc(Cl)cc1O | True
O=C1/C(=C\c2cccn2C(=O)c2ccccc2)c2ccccc2N1c1c(Cl)cccc1Cl | False
COS(=O)(=O)CCN(CCOS(C)(=O)=O)S(C)(=O)=O | False
Cc1ccc(-c2cnc3sc4ccc(Cl)cc4n23)cc1 | False
COc1cc(OC)cc(-c2n/c(=C\c3c(O)[nH]c4ccc(Cl)cc34)cc3c2=Nc2ccccc2-3)c1 | False
C=CCn1c(SCC(=O)Nc2ccc(/C(C)=N\O)cc2)nnc1-c1cc(-c2ccccc2)nc2ccccc12 | False
Nc1nonc1-c1nc2ccccc2n1Cc1ccc(F)cc1 | True
CCN(C(=O)Nc1cccc2ccccc12)c1ccccc1 | False
O=C(/C=C/c1cc([N+](=O)[O-])ccc1Cl)c1ccccc1 | False
O=C(Nc1ccc2[nH]c3ccccc3c2c1)c1ccccc1Cl | False
CCOC(=O)NNc1cccc(Cl)c1 | False
O=C1OC(c2ccc(-c3ccccc3)cc2)=C/C1=C/c1c(Cl)cccc1Cl | False
O=C(Nc1ccc(Cl)c(C(F)(F)F)c1)c1ccc(Nc2ccc(Cl)nn2)cc1 | False
CC(=O)OC1Oc2cc(C)c(C)cc2-c2oc(=O)c(-c3ccc(F)cc3)cc21 (stereo unspecified) | False
CCN(CC)CCC(CNc1ccnc2cc(Cl)ccc12)c1ccc(O)cc1 (stereo unspecified) | False
Fc1ccc(-c2nnc(N3CCOCC3)c3ccccc23)cc1 | False
COc1cc(-c2n/c(=C\c3c(O)[nH]c4cc(Cl)ccc34)cc3c2=Nc2ccccc2-3)cc(OC)c1OC | False
O=C(Cn1nncc1CN1C(=O)CSC1=O)Nc1ccc(F)cc1 | False
Cc1nc2n[nH]c(N)c2nc1C | False
COc1c(C(=O)/C=C/c2ccc(C)o2)c(O)cc2occc12 | False
COc1ccc(-c2nc3ccc(Cc4ccc5nc(-c6ccc(OC)cc6)[nH]c5c4)cc3[nH]2)cc1 | True
COC(=O)C1(C)COP(=O)(NC23CC4CC(CC(C4)C2)C3)OC1 (stereo unspecified) | False
CCN(CC)CCCC(C)Nc1cnc(C(=O)Nc2ccc(Cl)c3cccnc23)cn1 (stereo unspecified) | True
COc1cc(C2CC(c3cccc(Nc4ccnc5cc(Cl)ccc45)c3)=NN2c2ccc(Cl)cc2)cc(OC)c1OC (stereo unspecified) | False
O=C1CC2(O)CSc3nc(=O)cc(n32)N1 (stereo unspecified) | False
C#CC[C@@H]1C[C@]2(C)[C@H]3CC=C4[C@H]5[C@@H](C)[C@H](C)CC[C@]5(C(=O)NCCCN5CCN(CCCN)CC5)CC[C@@]4(C)[C@]3(C)CC[C@H]2C(C)(C)[C@H]1OC(C)=O | True
Nc1nc(N)c2c(n1)NC(c1sc(Cl)nc1Cl)CC(c1ccccc1)=N2 (stereo unspecified) | True
Cc1ccccc1CNc1ncnc2[nH]ncc12 | False
CCCCn1cnc(-c2cc(-c3ccccc3)cc(C(F)(F)F)c2)n1 | False
NC(=O)Nc1ccc2ncnc(Nc3cccc(O)c3)c2c1 | False
CCCCNCC(O)c1cc(-c2ccc(C(F)(F)F)cc2)nc(-c2ccc(C(F)(F)F)cc2)c1 (stereo unspecified) | True
Clc1ncnc2scc(C3COc4ccccc4O3)c12 (stereo unspecified) | False
COc1cc(C(=O)/C=C/c2cn(-c3ccccc3)nc2-c2cccc(Nc3ccnc4cc(Cl)ccc34)c2)cc(OC)c1OC | False
Cn1nc(C(F)(F)F)cc1-c1cc(Cl)c(OCc2ccc(Cl)cc2)c(-c2ccc(Cl)c(C(F)(F)F)c2)c1O | True
O=C1/C(=C\c2cccn2Cc2ccc(F)cc2)c2ccccc2N1c1c(Cl)cccc1Cl | False
CCCCn1c(C)nc2cc(Nc3nc(Cl)nc4nc[nH]c34)ccc21 | False
COc1cc(/C=C2\C(=O)Nc3ccc(N(C)C)cc32)cc(OC)c1OC | False
Cc1ccc(CSCc2ccc(C(=O)NC3CC3)o2)cc1 | False
